So I've got a bunch of binders here, and I need their IC50 GM-CSF, TF-1 proliferation values.
Target: T1, human CD131 (human, UniProt P32927 17-897)
T1 sequence: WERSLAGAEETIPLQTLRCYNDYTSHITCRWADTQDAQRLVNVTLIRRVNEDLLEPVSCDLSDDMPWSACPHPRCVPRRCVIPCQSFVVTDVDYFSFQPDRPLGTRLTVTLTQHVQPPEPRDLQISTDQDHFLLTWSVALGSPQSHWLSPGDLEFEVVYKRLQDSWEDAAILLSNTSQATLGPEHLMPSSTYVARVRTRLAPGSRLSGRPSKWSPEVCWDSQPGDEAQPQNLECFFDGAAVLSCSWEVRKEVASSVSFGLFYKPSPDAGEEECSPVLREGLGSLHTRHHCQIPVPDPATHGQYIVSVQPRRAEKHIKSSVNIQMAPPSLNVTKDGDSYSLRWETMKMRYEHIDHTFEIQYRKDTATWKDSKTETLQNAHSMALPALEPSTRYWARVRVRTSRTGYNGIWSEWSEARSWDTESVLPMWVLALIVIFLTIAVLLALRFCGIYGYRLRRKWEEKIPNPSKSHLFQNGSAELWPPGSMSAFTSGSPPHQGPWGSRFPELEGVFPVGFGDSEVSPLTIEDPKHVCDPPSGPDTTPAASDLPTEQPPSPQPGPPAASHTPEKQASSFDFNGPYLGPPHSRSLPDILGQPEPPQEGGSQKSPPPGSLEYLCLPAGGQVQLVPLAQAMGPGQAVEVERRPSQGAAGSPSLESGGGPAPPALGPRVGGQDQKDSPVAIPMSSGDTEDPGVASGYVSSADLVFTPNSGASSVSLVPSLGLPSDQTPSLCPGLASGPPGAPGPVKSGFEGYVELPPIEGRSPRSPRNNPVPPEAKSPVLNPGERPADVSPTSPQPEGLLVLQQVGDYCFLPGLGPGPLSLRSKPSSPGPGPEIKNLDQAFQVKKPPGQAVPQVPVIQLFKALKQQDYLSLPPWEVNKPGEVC
Test: cell-based or functional assay
Only the number, expressed in nM, is required.

Exercise: So what does the record say about IC50 GM-CSF, TF-1 proliferation for 9A2-VR39.28 (antibody, V domains shown) VH: EVQLLESGGGLVQPGGSLRLSCAASRGAPMWYHMLWVRQAPGKGLEWVSSINGRGRVTYYADSVKGRFTISRDNSKNTLYLQMNSLRAEDTAVYYCARFYDSFFDIWGQGTMVTVSS VL: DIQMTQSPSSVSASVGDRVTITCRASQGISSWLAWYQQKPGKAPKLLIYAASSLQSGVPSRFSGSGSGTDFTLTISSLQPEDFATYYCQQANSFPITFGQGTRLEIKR ?
Solution: 57.2

Exercise: Next entry: 9A2-VR24.24 (antibody, V domains shown) VH: EVQLLESGGGLVQPGGSLRLSCAASGFTFPWYRVHWVRQAPGKGLEWVSSIRTDGTWTYYADSVKGRFTISRDNSKNTLYLQMNSLRAEDTAVYYCARFYDSFFDIWGQGTMVTVSS VL: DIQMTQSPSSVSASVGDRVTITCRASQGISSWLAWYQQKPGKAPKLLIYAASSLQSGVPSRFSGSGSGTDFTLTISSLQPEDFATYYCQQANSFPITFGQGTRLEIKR
Solution: 1.09

Exercise: Entry 9A2-VR39.98 (antibody, V domains shown) VH: EVQLLESGGGLVQPGGSLRLSCAASGFTFEHYHTIWVRQAPGKGLEWVSSINGRGRVTYYADSVKGRFTISRDNSKNTLYLQMNSLRAEDTAVYYCARFYDSFFDIWGQGTMVTVSS VL: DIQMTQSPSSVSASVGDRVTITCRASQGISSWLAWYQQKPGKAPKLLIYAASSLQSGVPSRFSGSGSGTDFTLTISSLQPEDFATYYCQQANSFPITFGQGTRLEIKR please
Solution: 1.44
